- Tested on: M. mycetomatis strain mm55
- test-context: m. mycetomatis hyphae, 96 h, 2 µM
Kindly apply the following: yes (1) if % viability is less than 70%, no (0) in every other case.

% viability strictly < 70% for this compound? CC[C@@](C)(Nc1ccnc(-c2c[nH]c3ncccc23)n1)C(=O)NCC(F)(F)F
yes (1)

% viability strictly < 70% for this compound? Cc1cc(Nc2cc(N3CCN(C)CC3)nc(Sc3ccc(NC(=O)C4CC4)cc3)n2)[nH]n1
no (0)

% viability strictly < 70% for this compound? CC(C)(CO)c1cc2cc(NC(=O)C3(c4ccc5c(c4)OC(F)(F)O5)CC3)c(F)cc2n1C[C@@H](O)CO
no (0)

% viability strictly < 70% for this compound? O=c1ncn2nc(Sc3ccc(F)cc3F)ccc2c1-c1c(Cl)cccc1Cl
no (0)

% viability strictly < 70% for this compound? O=P1(N(CCCl)CCCl)NCCCO1 (stereo not drawn) [ONC0000336, cyclophosphamide]
yes (1)

###

- Test system: M. mycetomatis strain mm55
- test-context: m. mycetomatis hyphae, 96 h, 2 µM
I'd be grateful if you could share measured % viability for these entries.
Kindly answer with a numeric value in %, unit omitted.

What the record says about Cn1c(=O)n(-c2ccc(C(C)(C)C#N)cc2)c2c3cc(-c4cnc5ccccc5c4)ccc3ncc21 : % viability is 133.4

What the record says about CC[C@@]1(O)C(=O)OCc2c1cc1n(c2=O)Cc2cc3cc(O)ccc3nc2-1 [ONC0005199, 10hydroxycamptothecin] : % viability is 143.5

What the record says about Cc1cnc(Nc2ccc(F)cc2Cl)nc1-c1c[nH]c(C(=O)N[C@H](CO)c2cccc(Cl)c2)c1 [ONC0005411, vx11e] : % viability is 117

What the record says about O=C(O)CCCc1ccc(N(CCCl)CCCl)cc1 : % viability is 84.26

###

- Tested on: M. mycetomatis strain mm55
- test-protocol: IC50 and MIC determination, CellTiter-Glo, strain mm55
- Type: cell-based, Madurella mycetomatis
- test-context: concentration inhibiting 50% of fungal hyphae growth
I'd be grateful if you could share measured IC50 for these entries.
Kindly answer with a numeric value in µM, unit omitted.

What the record says about C[CH2][Hg][S]c1ccccc1C(=O)[O-].[Na+] : IC50 is 0.08

What the record says about CC(=O)[O][Hg][c]1ccccc1 [Phenylmercuric acetate] : IC50 is 1.12

###

I'd be grateful if you could share measured MIC for these entries.
- System: M. mycetomatis strain mm55
- test-protocol: IC50 and MIC determination, CellTiter-Glo, strain mm55
- Assay type: cell-based, Madurella mycetomatis
- test-context: Madurella mycetomatis, concentration with complete growth inhibition
Where a name gives a salt, the structure may show the parent alone.
Kindly answer with a numeric value in µM, unit omitted.

The molecule N#C/C(=C1/SC[C@@H](c2ccc(Cl)cc2Cl)S1)n1ccnc1 [Luliconazole] , when measured on M. mycetomatis strain mm55, yielded MIC of 0.03

The molecule Oc1c(I)cc(Cl)c2cccnc12 [Clioquinol] , when measured on M. mycetomatis strain mm55, yielded MIC of 2

The molecule C=C(c1ccccc1OCc1cccc(Cl)c1)n1ccnc1 [Cloconazole HCl] , when measured on M. mycetomatis strain mm55, yielded MIC of 1

The molecule N#C/C(=C1/SCC(c2ccccc2Cl)S1)n1ccnc1 (stereo not drawn) [Lanoconazole] , when measured on M. mycetomatis strain mm55, yielded MIC of 0.06

The molecule C[C@@H](c1nc(-c2ccc(C#N)cc2)cs1)[C@](O)(Cn1cncn1)c1cc(F)ccc1F [Isavuconazole] , when measured on M. mycetomatis strain mm55, yielded MIC of 1

The molecule CCC(C)n1ncn(-c2ccc(N3CCN(c4ccc(OCC5COC(Cn6cncn6)(c6ccc(Cl)cc6Cl)O5)cc4)CC3)cc2)c1=O (stereo not drawn) [Itraconazole hydrochloride] , when measured on M. mycetomatis strain mm55, yielded MIC of 2

The molecule CC(C)(C)c1ccc(S(=O)(=O)/C=C/C#N)cc1 [bay117085] , when measured on M. mycetomatis strain mm55, yielded MIC of 2

The molecule Cc1ccc2c(Br)cc(Br)c(OC(=O)c3ccccc3)c2n1 [Broxaldine] , when measured on M. mycetomatis strain mm55, yielded MIC of 2

The molecule OCCCNc1cc(-c2ccnc(Nc3cccc(Cl)c3)n2)ccn1 [cgp60474] , when measured on M. mycetomatis strain mm55, yielded MIC of 2
